# TARGET_SYSTEM: NADPH oxidase 2 (Homo sapiens) (UniProt P04839)
# Sequence (P04839 whole entry, looked up): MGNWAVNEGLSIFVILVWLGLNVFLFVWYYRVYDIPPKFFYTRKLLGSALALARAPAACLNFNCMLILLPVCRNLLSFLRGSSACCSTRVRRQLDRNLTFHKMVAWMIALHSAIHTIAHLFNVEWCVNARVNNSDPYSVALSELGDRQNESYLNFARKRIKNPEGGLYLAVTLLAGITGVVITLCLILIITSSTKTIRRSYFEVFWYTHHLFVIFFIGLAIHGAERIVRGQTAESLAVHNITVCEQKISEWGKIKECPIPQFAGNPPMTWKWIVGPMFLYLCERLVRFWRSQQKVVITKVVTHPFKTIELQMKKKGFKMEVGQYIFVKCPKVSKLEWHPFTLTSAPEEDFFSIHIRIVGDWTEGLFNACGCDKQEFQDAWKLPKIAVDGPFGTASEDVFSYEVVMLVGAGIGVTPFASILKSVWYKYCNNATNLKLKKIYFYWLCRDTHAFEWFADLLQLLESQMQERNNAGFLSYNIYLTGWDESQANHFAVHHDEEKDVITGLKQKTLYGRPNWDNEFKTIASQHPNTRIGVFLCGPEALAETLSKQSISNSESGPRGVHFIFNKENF
# ASSAY_REMARKS: NOX2-dependent H2O2 signal modulators, primary screen, NOX inhibitor project, cell-based, HEK293-NOX2, PMA-stimulated, Amplex Red fluorescence (AID 1159); also: test concentration not given here
# CONDITION: 45 min, higher = more signal, called active from +8 up or from −8 down

[
  {
    "COMPOUND": "COC(=O)CC=C[C@H](C)[C@H](CO)NS(=O)(=O)c1ccc(C)cc1",
    "z-score": 1.48
  },
  {
    "COMPOUND": "CC(C)CON=C1C[C@@H](O)[C@@H](O)[C@@H]2[C@@H]3C(=O)N(C[C@@H]4CCCO4)C(=O)[C@@H]3CC[C@H]12",
    "z-score": 0.202
  },
  {
    "COMPOUND": "CC(C)(C)OC(=O)CC[C@]1(C(=O)NCc2ccccc2)N=C(c2ccc(OCCCO)cc2)O[C@H]1c1ccccc1",
    "z-score": -2.22
  },
  {
    "COMPOUND": "CC(C)=CCCC(C)=CCON=C1[C@H]2CCn3c(=O)n(Cc4cc5c(cc4Cl)OCO5)c(=O)n3[C@H]2[C@H](O)[C@@H]2O[C@H]12",
    "z-score": 0.594
  },
  {
    "COMPOUND": "CCOC(=O)[C@H](CC(C)C)NC(=O)CCC1CC(OC(=O)NCCc2ccc(F)cc2)CC2(CCCC(COC(=O)NCc3ccccc3)O2)O1 (some centres not stated)",
    "z-score": -0.945
  },
  {
    "COMPOUND": "CC(=O)OC[C@H]1O[C@H](CCON=C(C)CCC(=O)OC[C@H]2O[C@H](C#Cc3ccccc3)C=C[C@@H]2Oc2ccc(C)cc2)C=C[C@@H]1OC(C)=O",
    "z-score": -0.772
  },
  {
    "COMPOUND": "CCN1C(=O)[C@H]2[C@H]3[C@H](O)[C@H](O)CC(=NOC[C@@H](C)[C@H](OCc4ccccc4)C(C)C)[C@@H]3CC[C@H]2C1=O",
    "z-score": -0.136
  },
  {
    "COMPOUND": "CC(C)[C@@H](OCc1ccccc1)[C@H](C)C=NOC[C@@H](C)[C@H](OCc1ccccc1)C(C)C",
    "z-score": -0.537
  },
  {
    "COMPOUND": "CC1CC/C=C\\[C@H]2OC34C=CCN(C(C)C)C(=O)[C@H]3N(CCCO)C(=O)[C@@H]4C2C(=O)O1 (some centres not stated)",
    "z-score": 1.57
  },
  {
    "COMPOUND": "CCOC(=O)CCN1C(=O)[C@H]2[C@H]3[C@H](O)[C@H](O)CC(=O)[C@H]3CC[C@H]2C1=O",
    "z-score": -0.513
  },
  {
    "COMPOUND": "CC1(C)OCC(C(O)C2=CCCCC2=O)CO1 (configuration not stated)",
    "z-score": 0.362
  },
  {
    "COMPOUND": "C[C@@H]1CC[C@H]2C(=O)O[C@H](COc3ccc(C(C)(C)C)cc3)CN2[C@H]1c1ccc(Br)cc1",
    "z-score": 0.0709
  },
  {
    "COMPOUND": "CC(C)[C@H](NC(=O)OC(C)(C)C)[C@@H](O)CC(=O)OC(C)(C)C",
    "z-score": 1.33
  },
  {
    "COMPOUND": "O=C1[C@H]2[C@H]3[C@H](O)[C@H](O)CC(=NOCc4ccccc4)[C@@H]3CC[C@H]2C(=O)N1C1CCCCC1",
    "z-score": 1.56
  },
  {
    "COMPOUND": "CC(C)=NOCc1ccc(-c2cc(-c3ccccc3)no2)cc1",
    "z-score": -2.54
  },
  {
    "COMPOUND": "CN1C(=O)C2C=CC(C(O)c3ccc(I)cc3)N(NC(=O)OC(C)(C)C)C2C1=O (configuration not stated)",
    "z-score": -1.01
  },
  {
    "COMPOUND": "CCCNC(=O)OC[C@H]1O[C@H](CCON=C[C@@H](OC)[C@H](C)C=CCC(=O)OC)C=C[C@@H]1Oc1ccc(OC)cc1",
    "z-score": -1.56
  },
  {
    "COMPOUND": "C#C[C@@H]1Oc2ccccc2S(=O)(=O)N2CCC[C@H]12",
    "z-score": 0.0921
  },
  {
    "COMPOUND": "CC(C)N1CC=CC23O[C@@H]4C=CCCOC(=O)C4[C@H]2C(=O)N(CCCCCCO)[C@@H]3C1=O (some centres not stated)",
    "z-score": 0.584
  },
  {
    "COMPOUND": "C=C(/C(=C/C[C@H](OC(C)=O)c1ccc(OCCO)cc1)c1cnc2ccccc2c1)C(C)C",
    "z-score": -2.21
  },
  {
    "COMPOUND": "CO[C@@H]1COC(=O)[C@@H]2CCCN2C(=O)[C@@H](C)COC(=O)[C@H](COCc2ccccc2)NC(=O)CC=C[C@H]1C",
    "z-score": -0.363
  },
  {
    "COMPOUND": "CC(C)OC(=O)C=C1C[C@@H](c2ccc(C#N)cc2)O[C@@H](c2ccc(C#N)cc2)O1",
    "z-score": -0.669
  },
  {
    "COMPOUND": "CC(CCC(=O)OC[C@H]1O[C@H](C#Cc2ccccc2)C=C[C@@H]1Oc1ccc(C)cc1)=NOC[C@@H](O)COCc1ccco1",
    "z-score": -0.0388
  },
  {
    "COMPOUND": "COc1ccc(O[C@H]2C=C[C@@H](c3ccccc3)O[C@@H]2CON=C[C@@H](C)[C@H](OCc2ccccc2)C(C)C)cc1",
    "z-score": -0.734
  },
  {
    "COMPOUND": "C[C@@H]1C=CCC(=O)OC[C@H](C)C(=O)OC[C@H]2O[C@H]1C=C[C@H]2O",
    "z-score": -0.648
  },
  {
    "COMPOUND": "O=C(NN=C1C[C@@H](O)[C@@H](O)[C@@H]2[C@@H]3C(=O)N(c4cccc(Oc5ccccc5)c4)C(=O)[C@@H]3CC[C@@H]12)OCc1ccccc1",
    "z-score": 1.05
  },
  {
    "COMPOUND": "COCCCNC(=O)[C@@]1(C)c2ccccc2C(=O)N(Cc2ccc(OC(F)(F)F)cc2)[C@H]1c1ccc(CO)cc1",
    "z-score": -0.599
  },
  {
    "COMPOUND": "CCN1C(=O)[C@H]2[C@H]3[C@H](O)[C@H](O)CC(=NOCc4ccccc4)[C@@H]3CC[C@H]2C1=O",
    "z-score": -0.521
  },
  {
    "COMPOUND": "COc1ccc(O[C@H]2C=C[C@@H](c3ccccc3)O[C@@H]2COC(=O)CCC(C)=NOC[C@@H](C)[C@H](OCc2ccccc2)C(C)C)cc1",
    "z-score": 0.796
  },
  {
    "COMPOUND": "CC(C)=C1C(=O)C(c2ccccc2)=C2CN3C(=O)N(CCc4ccccc4)C(=O)[C@]3(Cc3ccc(F)cc3)[C@H]21",
    "z-score": -0.578
  },
  {
    "COMPOUND": "COCC(=C=CC[C@@H](O)c1ccccc1OCCO)CCO",
    "z-score": 1.64
  },
  {
    "COMPOUND": "COc1ccc([Si](C)(C)[C@@H]2[C@@H](CCO)O[C@]3(C(=O)N(Cc4ccc(NC(C)=O)cc4)c4ccccc43)[C@H]2C)cc1",
    "z-score": -0.371
  }
]

----------
# ASSAY_REMARKS: small-molecule microarray binders of probe aDKK1, primary screen, biochemical, biotinylated probe, 635/667 nm fluorescence (AID 1099);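 also: score merges 667nm spot fluorescence with signal to noise across triplicate slides; reference of the scale not given here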
# CONDITION: higher = more signal
Classify by measured composite z-score: label 1 if it is equal to or exceeds -0.3, label 0 if it is smaller.

[
  {
    "COMPOUND": "COCC1=C2[C@@H](CCc3ccccc3)OB(O)C[C@@H]2n2c(=O)n(-c3ccccc3)c(=O)n2C1",
    "ASSIGNED_LABEL": "label 0"
  },
  {
    "COMPOUND": "CC(CCC(=O)OC[C@H]1O[C@H](C#Cc2ccccc2)C=C[C@@H]1Oc1ccc(C)cc1)=NOC[C@@H](O)COCc1ccco1",
    "ASSIGNED_LABEL": "label 0"
  },
  {
    "COMPOUND": "O=C1CCCC=C1C(O)CCOCc1ccccc1 (stereo not drawn)",
    "ASSIGNED_LABEL": "label 1"
  },
  {
    "COMPOUND": "C=C(/C(=C/C[C@H](OC(=O)c1ccncc1)c1ccc(OCCO)cc1)c1cnc2ccccc2c1)C(C)C",
    "ASSIGNED_LABEL": "label 1"
  },
  {
    "COMPOUND": "O=C1[C@H]2[C@H]3[C@H](O)[C@H](O)CC(=NOC[C@@H](O)COCc4ccco4)[C@H]3CC[C@H]2C(=O)N1c1cccc(Oc2ccccc2)c1",
    "ASSIGNED_LABEL": "label 0"
  },
  {
    "COMPOUND": "CCOC(=O)CCN1C(=O)[C@H]2[C@H]3[C@H](O)[C@H](O)CC(=NOC[C@@H](O)COCc4ccco4)[C@@H]3CC[C@H]2C1=O",
    "ASSIGNED_LABEL": "label 1"
  },
  {
    "COMPOUND": "CO[C@@H]1COC(=O)CC=C[C@@H](C)[C@H](OC)COC(=O)[C@H](COCc2ccccc2)NC(=O)CC=C[C@H]1C",
    "ASSIGNED_LABEL": "label 0"
  },
  {
    "COMPOUND": "C=C(CCCC)C(=O)CC[C@@H](OC(C)=O)c1cccc(OCCO)c1",
    "ASSIGNED_LABEL": "label 1"
  }
]
